- protocol conditions: in acetonitrile, 313.2 K
value type: solubility (mole fraction)

Memo: `O=c1c(-c2ccc(O)cc2)coc2cc(O[C@@H]3O[C@H](CO)[C@@H](O)[C@H](O)[C@H]3O)ccc12` , reported solubility (mole fraction): 2e-05

----------
- protocol conditions: in chloroform, 313.2 K
value type: solubility (mole fraction)
Answer with a bare number; do not write a unit.

Memo: `O=c1c(-c2ccc(O)cc2)coc2cc(O[C@@H]3O[C@H](CO)[C@@H](O)[C@H](O)[C@H]3O)ccc12` , reported solubility (mole fraction): 2.36e-06

----------
- protocol conditions: in cyclohexane, 283.2 K
value type: solubility (mole fraction)
Answer with a bare number; do not write a unit.

Memo: `O=c1c(-c2ccc(O)cc2)coc2cc(O[C@@H]3O[C@H](CO)[C@@H](O)[C@H](O)[C@H]3O)ccc12` , reported solubility (mole fraction): 1.25e-07

Provenance of the data: BigSolDB 2.1
